system: Escherichia coli; assay: Inhibition of CTX-M2 in beta-lactam-resistant Escherichia coli TG1 transfected with pBGS18 plasmid encoding replication origin and kanamycin resistance assessed as potentiation of ampicillin-induced antibacterial activity by measuring ampicillin MIC at 16 ug/mL in Mueller-Hinton broth by CLSI protocol based method (Rvb > 1024 ug/mL)
Property: MIC; scope: individual compounds
Numbers only here, please. The scale is µg/mL.

Study these solved cases before continuing.
- chemical_string: "C[C@]1(COC(=O)Cc2ccc(O)c(O)c2)[C@H](C(=O)O)N2C(=O)/C(=C/c3ccccn3)[C@H]2S1(=O)=O"
  MIC (µg/mL): 16
- chemical_string: "C[C@]1(COC(=O)Cc2ccc(O)c(O)c2)[C@H](C(=O)O)N2C(=O)/C(=C/c3cc(Br)ccn3)[C@H]2S1(=O)=O"
  MIC (µg/mL): 16
- chemical_string: "C[C@]1(COC(=O)Cc2ccc(O)c(O)c2)[C@H](C(=O)O)N2C(=O)/C(=C/c3cc4ccccc4cn3)[C@H]2S1(=O)=O"
  MIC (µg/mL): 256
- chemical_string: "Cn1cc(-c2ccnc(/C=C3/C(=O)N4[C@@H](C(=O)O)[C@](C)(COC(=O)Cc5ccc(O)c(O)c5)S(=O)(=O)[C@H]34)c2)cn1"
  MIC (µg/mL): 16
- chemical_string: "C[C@]1(COC(=O)Cc2ccc(O)c(O)c2)[C@H](C(=O)O)N2C(=O)/C(=C/c3ccc(F)cn3)[C@H]2S1(=O)=O"
  MIC (µg/mL): 32
- chemical_string: "COc1ccnc(/C=C2/C(=O)N3[C@@H](C(=O)O)[C@](C)(COC(=O)Cc4ccc(O)c(O)c4)S(=O)(=O)[C@H]23)c1OC"
  MIC (µg/mL): 256
- chemical_string: "C[C@]1(COC(=O)Cc2ccc(O)c(O)c2)[C@H](C(=O)O)N2C(=O)/C(=C/c3nccc4ccsc34)[C@H]2S1(=O)=O"
  MIC (µg/mL): 256

Entry `O=C(NC1CCNCC1)[C@@H]1CC[C@@H]2CN1C(=O)N2OS(=O)(=O)O` — recorded MIC = 16

###

system: Acinetobacter baumannii ATCC 17978; test: Inhibition of OXA-24/40 in carbapenem-resistant Acinetobacter baumannii ATCC 17978 transfected with pET-RA-KmR plasmid encoding rifampicin and kanamycin resistance assessed as potentiation of imipenem-induced antibacterial activity by measuring imipenem MIC at 16 ug/mL in Mueller-Hinton broth by CLSI protocol based method (reference value: 64 ug/mL)
# Lookup of reported MIC keyed by entry
Provide only the numeric value, understood in µg/mL.

Observe how each entry below is paired with its result.
- compound: "C[C@]1(COC(=O)Cc2ccc(O)c(O)c2)[C@H](C(=O)O)N2C(=O)/C(=C/c3nccc4ccsc34)[C@H]2S1(=O)=O"
  unit_of_measurement: "µg/mL"
  MIC: 8
- compound: "C[C@]1(COC(=O)Cc2ccc(O)c(O)c2)[C@H](C(=O)O)N2C(=O)/C(=C/c3cc(Br)ccn3)[C@H]2S1(=O)=O"
  unit_of_measurement: "µg/mL"
  MIC: 1

Consider `C[C@]1(COC(=O)Cc2ccc(O)c(O)c2)[C@H](C(=O)O)N2C(=O)/C(=C/c3ccccn3)[C@H]2S1(=O)=O` . Its measured MIC is 0.5

Looking up `C[C@]1(COC(=O)Cc2ccc(O)c(O)c2)[C@H](C(=O)O)N2C(=O)/C(=C/c3cc4ccccc4cn3)[C@H]2S1(=O)=O` , I see its MIC listed as 2

Input `C[C@]1(COC(=O)Cc2ccc(O)c(O)c2)[C@H](C(=O)O)N2C(=O)/C(=C/c3ccc(F)cn3)[C@H]2S1(=O)=O` . Output MIC: 1

Entry `Cn1cc(-c2ccnc(/C=C3/C(=O)N4[C@@H](C(=O)O)[C@](C)(COC(=O)Cc5ccc(O)c(O)c5)S(=O)(=O)[C@H]34)c2)cn1` , MIC reported as 1

Input NC(=O)[C@@H]1CC[C@@H]2CN1C(=O)N2OS(=O)(=O)[O-].[Na+] [AVIBACTAM SODIUM] . Output MIC: 16

Input `O=C(NC1CCNCC1)[C@@H]1CC[C@@H]2CN1C(=O)N2OS(=O)(=O)O` . Output MIC: 64

`COc1ccnc(/C=C2/C(=O)N3[C@@H](C(=O)O)[C@](C)(COC(=O)Cc4ccc(O)c(O)c4)S(=O)(=O)[C@H]23)c1OC` yielded MIC of 8
